Each recorded value in this set is attributed to PubChem BioAssay AID1259407.

Tested on: CCRIS mutagenicity, Ames/micronucleus/aberration tests
procedure text: CCRIS mutagenicity studies
experimental parameters: Test System: AMES SALMONELLA TYPHIMURIUM; Strain/Indicator: TA2638; Metabolic Activation: NONE; Method: STANDARD PLATE
Activity calls are given as the source filed them. The rule behind the calls is not given here.
measurement name: mutagenic call

CC[n+]1c2ccccc2nc2ccccc21 ... inactive; negative
OO ... active; positive
CN(C)CCN(Cc1cccs1)c1ccccn1 ... inactive; negative
CC1=CC(=O)c2ccccc2C1=O ... inactive; negative
CN1CCCC1=O ... inactive; negative
COC1=C(N)C(=O)c2nc(-c3nc(C(=O)O)c(C)c(-c4ccc(OC)c(OC)c4O)c3N)ccc2C1=O ... active; positive

Now let's try a different one.
Request body: readout mutagenic call, system CCRIS mutagenicity, Ames/micronucleus/aberration tests, query c1cc[n+]2c(c1)-c1cccc[n+]1CC2 . Return the value.
inactive; negative

====

Test system: CCRIS mutagenicity, Ames/micronucleus/aberration tests
procedure text: CCRIS mutagenicity studies
experimental parameters: Test System: E. COLI; Strain/Indicator: WP2 UVRA (PKM101); Metabolic Activation: NONE; Method: STANDARD PLATE
The source made the active and inactive calls. How the calls were made is not given here.
In this exercise, the only acceptable responses are active, inactive

What did the test return for OO ?
active

What did the test return for CC(F)(F)F ?
inactive

What did the test return for CC1=CC(=O)c2ccccc2C1=O ?
inactive

What did the test return for c1cc[n+]2c(c1)-c1cccc[n+]1CC2 ?
inactive

What did the test return for COC(=O)C(C)(C)Oc1ccc(-c2ccc(Cl)cc2)cc1 ?
inactive

What did the test return for CC[n+]1c2ccccc2nc2ccccc21 ?
active

What did the test return for COC1=C(N)C(=O)c2nc(-c3nc(C(=O)O)c(C)c(-c4ccc(OC)c(OC)c4O)c3N)ccc2C1=O ?
active

====

Test system: CCRIS mutagenicity, Ames/micronucleus/aberration tests
procedure text: CCRIS mutagenicity studies
experimental parameters: Test System: AMES SALMONELLA TYPHIMURIUM; Strain/Indicator: TA100; Metabolic Activation: HAMSTER, LIVER, S-9, AROCLOR 1254 (30%); Method: PREINCUBATION
Calls of active or inactive are those of the source. No rule for the calls is given here.
In this exercise, the only acceptable responses are active, inactive

What did the test return for O=C(OCC1CO1)C1CCCCC1C(=O)OCC1CO1 (stereo unspecified) ?
active

What did the test return for Cc1ccc2ncccc2c1 ?
active

What did the test return for OCC(O)CI (stereo unspecified) ?
active

What did the test return for CC(C)(C)OCC1CO1 (stereo unspecified) ?
active

What did the test return for c1ccc(CSCc2ccccc2)cc1 ?
inactive

What did the test return for Cc1ccc2cccnc2c1 ?
active

What did the test return for CCCCCc1cc(O)cc(O)c1 ?
inactive

What did the test return for Cc1cccc(Br)c1 ?
inactive

What did the test return for ClC1C(Br)C(Br)C(Br)C(Br)C1Br (stereo unspecified) ?
inactive

What did the test return for CCCCOP(=O)(OCCCC)Oc1ccccc1 ?
inactive

What did the test return for NO ?
inactive

What did the test return for CCCCCCC(C)(C)C(=O)OCC1CO1 (stereo unspecified) ?
active

What did the test return for CCCCCCCCCCCCCC(=O)O ?
inactive

What did the test return for Nc1ccc(Cl)cc1Cl ?
inactive

What did the test return for CCOc1ccccc1N ?
inactive

What did the test return for CC(=O)CC(=O)Nc1ccccc1 ?
inactive
